# experimentalTarget: T1, Abp1, P15891
# T1 sequence (P15891 535-592, looked up): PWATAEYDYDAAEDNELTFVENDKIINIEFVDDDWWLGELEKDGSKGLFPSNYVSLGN
# experimentNotes: SPOT array
# conditionDetails: median of control spots 935
Each entry below lists one item and its recorded SPOT intensity value.
Field format: numeric only.

Use the examples below as a reference point.
1) MTKTPETSPPKRPMG    75
2) RTRRRPPPPPIPSTQ    212
3) SAPDIPPRSPNRNAH    8
4) SHRLWLYAAPKRPKT    47
5) TIRRRAPLSLLESHT    46
6) TEVPIPRRPPPPQAA    0
7) EVTPKVPERPSRRKT    156
8) AHFQPQRTAPKPPIS    19

Give SPOT intensity for the following binder: "LPPPPPPPPPPPLPQ" 0
